B1: library; a variant is named by its letters at N, in order (parent)
chain: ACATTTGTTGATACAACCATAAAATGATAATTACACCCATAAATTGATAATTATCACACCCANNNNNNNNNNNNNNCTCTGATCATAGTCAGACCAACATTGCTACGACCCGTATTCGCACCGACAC

# Variants of: B1
# assayRemarks: relative integration efficiency (T-RL orientation) vs wild-type transposon end (log2 (normalized fold change)); transposon end mutated: right end (5 bp flank + 75 bp right end); higher = more efficient transposition
# conditionInfo: with VchCAST RNA-guided transposition machinery (E. coli BL21(DE3) host, lacZ target)
t means recorded relative integration efficiency (log2) is -0.5 or above; f means it is below -0.5.

Use these answered entries as a reference point.
1. ACATTTGTTGATACAACCATAAAATGATAATTACACCCATAAATTGATAATTATCACACCCATAAATTGGTATTGCCTCTGATCATAGTCAGACCAACATTGCTACGACCCGTATTCGCACCGACAC    t
2. ACATTTGTTGATACAACCATAAAATGATAATTACACCCATAAATTGATAATTATCAGACCCATAAATTGATATTGCCTCTGATCATAGTCAGACCAACATTGCTACGACCCGTATTCGCACCGACAC    t
3. ACATTTGTTGATACAACCATAAAATGATAATTACACCTATAAATTGATAATTATCACACCCATAAATTGATATTGCCTCTGATCATAGTCAGACCAACATTGCTACGACCCGTATTCGCACCGACAC    t
4. ACATTTGTTGATACAACCATAAAATGATAATTACACCCATAAATTGATAATTATCACACCCATGAATTGATATTGCCTCTGATCATAGTCAGACCAACATTGCTACGACCCGTATTCGCACCGACAC    f

[in] Determine whether this variant has relative integration efficiency (log2) no lower than -0.5: `ACATTTGGTGATACAACCATAAAATGATAATTACACCCATAAATTGATAATTATCACACCCAATTTAACTATAACGCTCTGATCATAGTCAGACCAACATTGCTACGACCCGTATTCGCACCGACAC`
[out] f

[in] Okay, and `ACATTTGTTGATATAACCATAAAATGATAATTACACCCATAAATTGATAATTATCACACCCATAAATTGATATTGCCTCTGATCATAGTCAGACCAACATTGCTACGACCCGTATTCGCACCGACAC` ?
[out] t

[in] Okay, and `ACATTTGTTGATACAACCATAAAATGATAATTACACCCATAAATTGATAATTATCACACCCATAAATTGAATAAGCCTCTGATCATAGTCAGACCAACATTGCTACGACCCGTATTCGCACCGACAC` ?
[out] f

[in] Okay, and `ACATTTGTTGATACAACCATAAAATGATAATTACACCCATAAATTGATAATTATCACACCCGTAAATTGATATTGCCTCTGATCATAGTCAGACCAACATTGCTACGACCCGTATTCGCACCGACAC` ?
[out] t

[in] Okay, and `ACATTTGTTGATACAACCATAAAATGATAATTACACCCATAAATTGATAATTATCACACCCATAAATTGATATTGCTTCTGATCATAGTCAGACCAACATTGCTACGACCCGTATTCGCACCGACAC` ?
[out] t
